Tested on: A498 renal
Protocol Description: NCI-60 one-dose screen, 48 h (100 = growth as untreated, 0 = no growth, -100 = all killed)
Conditions Used: 10 µM
About 83,000 compounds went through this panel and 20% of them were active in at least one assay; those are over-represented in the sample as a whole.
Catalogue of growth values

>  <Molecule>
COc1ccc(/C(CSc2nnc(-c3c[nH]c4ccccc34)n2-c2ccccc2)=N/O)cc1

>  <Unit Label>
%

>  <growth>
69.8

$$$$
>  <Molecule>
COC(=O)C(Cc1ccc(O)c(O)c1)NC(=O)C(CSC/C=C(\C)CCCC(C)CCCC(C)CCCC(C)C)NC(C)=O (stereo not drawn)

>  <Unit Label>
%

>  <growth>
102

$$$$
>  <Molecule>
O=C(N=Nc1c(O)[nH]c2ccc(Br)cc12)c1ccc2nc(-c3ccccc3)[nH]c2c1

>  <Unit Label>
%

>  <growth>
-55.3

$$$$
>  <Molecule>
COc1ccc(CN2[C@H](C(=O)NCc3ccc(C(=O)NO)cc3)Cc3c([nH]c4ccccc34)[C@H]2C2CC2)cc1

>  <Unit Label>
%

>  <growth>
65

$$$$
>  <Molecule>
N#Cc1c(NC(=O)c2ccc(C(F)(F)F)cc2)sc2c1CCC(=O)C2

>  <Unit Label>
%

>  <growth>
2.58

$$$$
>  <Molecule>
C=C[C@@]12CN3CC[C@]1(O)[C@@](C(=O)OC)(CO2)c1[nH]c2ccccc2c1C3

>  <Unit Label>
%

>  <growth>
81.8

$$$$
>  <Molecule>
CCOC(=O)C(Cc1ccccc1)N1C(=O)/C(=C/N2N=C(c3ccc(OC)cc3)CC2c2ccc3ccccc3c2)SC1=S (stereo not drawn)

>  <Unit Label>
%

>  <growth>
-13.3

$$$$
>  <Molecule>
Cc1ccn2c(C(=O)c3ccc(Br)cc3)cc(-c3cc(-c4ccc(N(C)C)cc4)c(C#N)c(N)n3)c2c1

>  <Unit Label>
%

>  <growth>
91.9

$$$$

---

Catalogue of growth values
Test system: SN12C renal
Protocol Description: NCI-60 one-dose screen, 48 h (100 = growth as untreated, 0 = no growth, -100 = all killed)
Conditions Used: 10 µM
The panel holds about 83,000 compounds, 20% with a hit somewhere; the sample as a whole holds those more often. Calls of active or inactive are those of the source. Rule for the calls: active = growth percent below 10; inactive = the rest.

>  <Compound>
CC[C@@]1(O)C(=O)OCc2c1cc1n(c2=O)Cc2c-1nc1cc(F)c(C)c3c1c2[C@@H](N)CC3

>  <growth>
1.83% (active)

$$$$
>  <Compound>
COc1ccc(-c2cc(C(=O)N=Nc3c(O)[nH]c4ccc(F)cc34)c3ccccc3n2)cc1

>  <growth>
65.5% (inactive)

$$$$
>  <Compound>
COc1ccc(C(=O)/C=C/c2cc(F)cc(C(F)(F)F)c2)cc1S(N)(=O)=O

>  <growth>
-69.1% (active)

$$$$
>  <Compound>
COC1=C[C@]23CCC(=O)N2CCc2cc4c(cc2[C@@H]3[C@@H]1OC(=O)CCCC(C)C)OCO4

>  <growth>
104% (inactive)

$$$$
>  <Compound>
COc1csc(/C=N/NC(=O)c2[nH]c3ccc(Br)cc3c2-c2ccccc2)c1

>  <growth>
5.51% (active)

$$$$
>  <Compound>
C=C(C)[C@@H]1CC[C@]2(C)[C@H](CC=C3[C@@H]4CC(C)(C)CC[C@]4(C(=O)N4CCOCC4)CC[C@]32C)[C@@]1(C)CCCN

>  <growth>
-89.1% (active)

$$$$
>  <Compound>
NC(=Nc1ccc(OCCCCCCCCn2ccnn2)cc1)c1ccccc1

>  <growth>
32.3% (inactive)

$$$$
>  <Compound>
O=C(CSc1nnc(-c2c[nH]c3ccccc23)n1-c1ccccc1)Nc1ccc(C(=O)/C=C/c2cccc([N+](=O)[O-])c2)cc1

>  <growth>
104% (inactive)

$$$$
>  <Compound>
O=C(Nc1nc2ccccc2s1)c1ccc(Br)cc1

>  <growth>
89.9% (inactive)

$$$$
>  <Compound>
CCN1CCN(c2ccc(NC(=O)Nc3ccc(-c4cc(C(=O)NC(C)C)c5ncccc5n4)cc3)cc2C(F)(F)F)CC1

>  <growth>
-94.3% (active)

$$$$
>  <Compound>
O=C(CNc1nc(-c2ccccc2)cs1)Nc1cccc([N+](=O)[O-])c1

>  <growth>
-77.8% (active)

$$$$
>  <Compound>
Cc1ccn2c(C(=O)c3ccccc3)cc(-c3cc(-c4ccc(N(C)C)cc4)c(C#N)c(N)n3)c2c1

>  <growth>
61.9% (inactive)

$$$$
>  <Compound>
COC[C@@H](CC(C)C)N=C1NC(=O)/C(=C/c2ccc3ncsc3c2)N1

>  <growth>
13.6% (inactive)

$$$$
>  <Compound>
C=C[C@@]12CN3CC[C@]1(O)[C@@](C(=O)OC)(CO2)c1[nH]c2ccccc2c1C3

>  <growth>
67.5% (inactive)

$$$$
>  <Compound>
C=CC(=O)Nc1nc(-c2cccc(NS(=O)(=O)c3cccc4c(N(C)C)cccc34)c2)cs1

>  <growth>
-56.6% (active)

$$$$
>  <Compound>
CN1CCN(c2ccc(Nc3nc(NCCCNC(=O)C4CCCCC4)c4sccc4n3)cc2)CC1

>  <growth>
70.6% (inactive)

$$$$
>  <Compound>
Cc1ccc2nc(-c3ccc(-c4nnc(SCC(=O)Nc5ccc(Cl)cc5)o4)cc3)[nH]c2c1

>  <growth>
-3% (active)

$$$$
>  <Compound>
CN1C(=O)N(C)C2SC(N/N=C/c3ccccc3)=NC21 (stereo not drawn)

>  <growth>
81.5% (inactive)

$$$$
